# Tested on: ACHN renal
# measurement.notes: NCI-60 one-dose screen, 48 h
# protocol.conditions: 10 µM unless noted
This is part of a sample that, as a whole, favours compounds with a hit. Of some 83,000 tested, about 20% had one in any assay. Calls of active or inactive are those of the source. How the source made its calls: active means growth percent below 10; inactive means the rest.
Write down one outcome, taken from true for active, false for inactive

Q: Could you please tell me the result logged for COc1ccc(Cc2cnc(NC(=O)c3cc(C)oc3C)s2)cc1 in this assay?
Result: false

Q: Kindly provide the recorded test outcome for the following compound: Cn1cc(-c2nonc2-c2cn(C)c3ccccc23)c2ccccc21
Result: false

Q: Which result was noted for this compound in the test: CNC(=O)c1ccccc1Oc1nc(Nc2cc(OC)c(OC)c(OC)c2)ncc1Br
Result: false

Q: Give the logged outcome of this assay for the following compound: O=c1c2ccccc2n2cnc3ccc(Cl)c1c32
Result: false

Q: Write down the call the test reported for this compound. Item: COc1cc(OC)c(NC(=O)c2cc3ccccc3cc2O)cc1Cl
Result: false

Q: Which result was noted for this compound in the test: Cc1nc2sc(C(=O)Nc3cccc4ccccc34)c(N)c2cc1C(O)c1ccccc1 (configuration not stated)
Result: false

Q: Returns: the outcome recorded for Cc1cccc(/C=C2\CN(C(=O)OC(C)(C)C)C/C(=C\c3cccc(C)c3)C2=O)c1 in this assay.
Result: false

Q: Hi, do you know how O=C(NCc1ccc(Cl)cc1Cl)C1CCC(=O)N1c1cccs1 (configuration not stated) came out in this test?
Result: false

Q: Outcome logged for COc1ccc(C2=Nc3c(N)nc(N)nc3NC(c3cccc(Nc4ccnc5cc(C(F)(F)F)ccc45)c3)C2)cc1 (configuration not stated) in this assay:
Result: false

Q: Dear all, I need the recorded test outcome for CCCCn1c(=O)[nH]c(N)c([C@@H]2c3c([nH]c(=O)n(CCCC)c3=O)Oc3ccc4ccccc4c32)c1=O , thank you.
Result: true

Q: Please indicate how the test categorized Cc1cn(-c2cc(NC(=O)c3cccc(C#Cc4cccc5[nH]nc(N)c45)c3)cc(C(F)(F)F)c2)cn1 .
Result: false

Q: What did this assay record as the result for Cc1cc(N2CCN(CC(=O)Nc3ccc4c(ccn4C)c3)CC2)nc(N2CCCCCC2)n1 ?
Result: false

Q: Outcome logged for Cc1cccc(CNc2c3ccccc3nc3ccccc23)c1 in this assay:
Result: false

Q: Fill in: this test's call for Cc1nc2sc(C(=O)Nc3ccc(Br)cc3)c(N)c2cc1C(O)c1ccccc1 (configuration not stated) is ___
Result: false

Q: Test call for this compound, please: C=CCN=c1sc2c(n1NC(=O)c1cc3ccc1CCc1ccc(cc1)CC3)C(=O)c1ccccc1C2=O
Result: true

Q: Per the assay record, what outcome was assigned to O=C1/C=C/[C@@H](O)[C@@H]2C[C@@H](O)C[C@H]2/C=C/CCC[C@H](CCc2ccccc2)O1 ?
Result: true

Q: What is the recorded call for this compound in the test? CCCCCOC(=O)c1c(C)[nH]c(/C=C2\N=C(c3ccc[nH]3)C=C2OC)c1C
Result: true

Q: Recorded call for O=C1c2ccc3c4c5ccc(c24)C(=O)N1CCCOCCCCOCCCNCc1ccc(cc1)CNCCCOCCCCOCCCN(C3=O)C5=O ?
Result: true

Q: Per the assay record, what outcome was assigned to COc1cc(-c2cncn2-c2ccc(-c3nc4ccc(F)cc4s3)cc2)ccc1F ?
Result: true

Q: // outcome(item) with item = C#CCNC(=O)[C@H](CC)[C@H]1CC[C@H](C)[C@H]([C@@H](C)[C@H](O)[C@H](C)C(=O)[C@H](CC)C2O[C@]3(C=CC(=O)[C@]4(CC[C@@](C)([C@H]5CC[C@](O)(CC)[C@H](C)O5)O4)O3)[C@H](C)C[C@@H]2C)O1 (some centres not stated)
Result: false

Q: Tell me the assay call for COC(CC(F)F)c1cn(S(=O)(=O)c2ccc(C)cc2)c2ccccc12 (configuration not stated) please.
Result: false

Q: GET /call?item= O=C(CN1C(=O)S/C(=C\C(Cl)=C\c2ccccc2)C1=O)NCCc1ccc(O)cc1 returns the recorded outcome of this test.
Result: true

Q: Query: recorded result category for CCC(=O)Oc1ccc(-c2ccccc2)cc1Br in this test
Result: false

Q: Hello, I am checking results. What call was entered for COc1cc(NS(=O)(=O)c2ccc(-c3cnc(C4CC4)o3)cc2)ccc1F ?
Result: false

Q: Can you look up the reported call for Cc1ccc2c(c1)=C/C(=C\c1cc(-c3ccccc3)oc1O)C(=O)N=2 for me?
Result: false

Q: Call for entry O=C1/C(=C/c2cn(-c3ccccc3)nc2-c2ccccc2)SC(=S)N1C1CCCCC1 :
Result: false

Q: Short answer needed: outcome of this test for Cc1cc(N2CCCCC2)cc(C)c1-c1csc(NC(=O)c2ccncc2)n1 ?
Result: false

Q: // outcome(item) with item = c1ccc([P+](c2ccccc2)(c2ccccc2)c2ccc3c4ccc([P+](c5ccccc5)(c5ccccc5)c5ccccc5)c5cccc(c6cccc2c63)c54)cc1
Result: false

Q: // return assay outcome for Clc1ccc2c(c1)C(c1c[nH]c3ccccc13)(c1c[nH]c3ccccc13)CCO2
Result: false

Q: Please let me know the test result on file for CCN1C(=S)N(c2ccccc2)C2C1NN=c1s/c(=C3\C(=O)N(C(C)C)c4ccccc43)c(=O)n12 (configuration not stated) .
Result: false

Q: What did this assay record as the result for C#COc1cccc(Nc2c(C#N)cnc3ncc(NC(=O)CCl)cc23)c1 ?
Result: false

Q: Could you kindly confirm the outcome this assay logged for Cc1csc(Nc2nc(-c3ccccn3)nc(C(Cl)(Cl)Cl)n2)n1 ?
Result: false

Q: Please let me know the test result on file for CCSc1oc(-c2ccccc2)nc1[P+](c1ccccc1)(c1ccccc1)c1ccccc1 .
Result: true

Q: Per the assay record, what outcome was assigned to O=C(O)c1cn(C2CC2)c2cc(N3CCN(Cc4ccc5ccccc5c4O)CC3)c(F)cc2c1=O ?
Result: false

Q: Returns: the outcome recorded for Cc1[nH]c(C(=O)Nc2ccccc2OC2CCNCC2)c(Cl)c1Cl in this assay.
Result: true

Q: Hello, I am checking results. What call was entered for O=[N+]([O-])c1cccc(-c2nc3cc4nc5ccccc5[nH]c4cc3n2)c1 ?
Result: false

Q: Please indicate how the test categorized C1CCC([PH+](C2CCCCC2)C2CCCCC2[PH+](C2CCCCC2)C2CCCCC2)CC1.[Au].[CH-]1CCCCC1C1CCCC[N-]1 (configuration not stated) .
Result: true
